Experimental Protocol: activity coefficient (dimensionless); of the first substance listed, at infinite dilution; xn = mol fraction of the nth substance listed
Stated Conditions: 318.15 K; 101 kPa; Liquid; Chromatography; x1 = 0
Returns one of Condition met or Condition not met; Condition met when activity coefficient is >= 3.

INSERT INTO measurements (compound, qualitative_label) VALUES
  ('CCC(C)O (stereo not drawn) [butan-2-ol] + COCC[N+]1(C)CCCC1.O=S(=O)([N-]S(=O)(=O)C(F)(F)F)C(F)(F)F', 'Condition not met'),
  ('CCCCCCCC [octane] + COCC[N+]1(C)CCCC1.O=S(=O)([N-]S(=O)(=O)C(F)(F)F)C(F)(F)F', 'Condition met'),
  ('c1ccncc1 [pyridine] + COCC[N+]1(C)CCCC1.O=S(=O)([N-]S(=O)(=O)C(F)(F)F)C(F)(F)F', 'Condition not met'),
  ('C1CCCCC1 [cyclohexane] + COCC[N+]1(C)CCCC1.O=S(=O)([N-]S(=O)(=O)C(F)(F)F)C(F)(F)F', 'Condition met'),
  ('CCc1ccccc1 [ethylbenzene] + COCC[N+]1(C)CCCC1.O=S(=O)([N-]S(=O)(=O)C(F)(F)F)C(F)(F)F', 'Condition not met'),
  ('CCOC(C)=O [ethyl acetate] + COCC[N+]1(C)CCCC1.O=S(=O)([N-]S(=O)(=O)C(F)(F)F)C(F)(F)F', 'Condition not met'),
  ('C=Cc1ccccc1 [styrene] + COCC[N+]1(C)CCCC1.O=S(=O)([N-]S(=O)(=O)C(F)(F)F)C(F)(F)F', 'Condition not met'),
  ('CCC(C)CC [3-methylpentane] + COCC[N+]1(C)CCCC1.O=S(=O)([N-]S(=O)(=O)C(F)(F)F)C(F)(F)F', 'Condition met'),
  ('Cc1ccccc1C [1,2-dimethylbenzene] + COCC[N+]1(C)CCCC1.O=S(=O)([N-]S(=O)(=O)C(F)(F)F)C(F)(F)F', 'Condition not met'),
  ('CCC(C)(C)C [2,2-dimethylbutane] + COCC[N+]1(C)CCCC1.O=S(=O)([N-]S(=O)(=O)C(F)(F)F)C(F)(F)F', 'Condition met'),
  ('O [water] + COCC[N+]1(C)CCCC1.O=S(=O)([N-]S(=O)(=O)C(F)(F)F)C(F)(F)F', 'Condition met'),
  ('CC(C)CO [2-methyl-1-propanol] + COCC[N+]1(C)CCCC1.O=S(=O)([N-]S(=O)(=O)C(F)(F)F)C(F)(F)F', 'Condition not met'),
  ('CCC(=O)CC [pentan-3-one] + COCC[N+]1(C)CCCC1.O=S(=O)([N-]S(=O)(=O)C(F)(F)F)C(F)(F)F', 'Condition not met'),
  ('C=CCCC [1-pentene] + COCC[N+]1(C)CCCC1.O=S(=O)([N-]S(=O)(=O)C(F)(F)F)C(F)(F)F', 'Condition met'),
  ('CCOCC [diethyl ether] + COCC[N+]1(C)CCCC1.O=S(=O)([N-]S(=O)(=O)C(F)(F)F)C(F)(F)F', 'Condition not met'),
  ('CCCCC [pentane] + COCC[N+]1(C)CCCC1.O=S(=O)([N-]S(=O)(=O)C(F)(F)F)C(F)(F)F', 'Condition met'),
  ('C=CCCCCC [1-heptene] + COCC[N+]1(C)CCCC1.O=S(=O)([N-]S(=O)(=O)C(F)(F)F)C(F)(F)F', 'Condition met'),
  ('CC(C)O [propan-2-ol] + COCC[N+]1(C)CCCC1.O=S(=O)([N-]S(=O)(=O)C(F)(F)F)C(F)(F)F', 'Condition not met'),
  ('C1CCOC1 [tetrahydrofuran] + COCC[N+]1(C)CCCC1.O=S(=O)([N-]S(=O)(=O)C(F)(F)F)C(F)(F)F', 'Condition not met'),
  ('CCCCCCC [heptane] + COCC[N+]1(C)CCCC1.O=S(=O)([N-]S(=O)(=O)C(F)(F)F)C(F)(F)F', 'Condition met'),
  ('C1CCCC1 [cyclopentane] + COCC[N+]1(C)CCCC1.O=S(=O)([N-]S(=O)(=O)C(F)(F)F)C(F)(F)F', 'Condition met'),
  ('CCCC=O [butanal] + COCC[N+]1(C)CCCC1.O=S(=O)([N-]S(=O)(=O)C(F)(F)F)C(F)(F)F', 'Condition not met'),
  ('C1COCCO1 [1,4-dioxane] + COCC[N+]1(C)CCCC1.O=S(=O)([N-]S(=O)(=O)C(F)(F)F)C(F)(F)F', 'Condition not met');
